Each recorded value in this set is attributed to paper PMC9230201.

- test: Urinary excretion of phenolic metabolites after intake of the GCPE nutraceutical
- condition-set: urine; week 8; mean ± SEM, n = 9
measurement-label: Cumulative urinary excretion, Total 0–24 h (µmol)

Example compounds with recorded Cumulative urinary excretion, Total 0–24 h:
O=C(O)/C=C/c1ccc(O)c(O)c1 [CA, 3′,4′-Dihydroxycinnamic acid] | 0.45
O=C(CCc1ccc(O)c(O)c1)OC1CC(O)(C(=O)O)CC(O)C1O (stereo not shown) [5-Dihydrocaffeoylquinic acid] | 0.03
O=C(O)CCc1ccc(O[C@@H]2O[C@H](C(=O)O)[C@@H](O)[C@H](O)[C@H]2O)cc1 [DHCoA-4′-glucuronide, 3-(Phenyl)propanoic acid-4′-glucuronide] | 1.9

a. O=C(O)c1ccc(O)c(O)c1 [3,4-Dihydroxybenzoic acid]
b. COc1ccc(/C=C/C(=O)O)cc1O [iFA, 3′-Hydroxy-4′-methoxycinnamic acid]
c. O=C(CCc1ccc(O)c(O)c1)OC1CC(O)(C(=O)O)CC(O)C1O (stereo not shown) [3-Dihydrocaffeoylquinic acid]
d. O=C(CCc1ccc(O)c(O)c1)OC1C(O)CC(O)(C(=O)O)CC1O (stereo not shown) [4-Dihydrocaffeoylquinic acid]
Exam item: Please order the records by their reported Cumulative urinary excretion, Total 0–24 h, lowest number first. Sort and list the labels as requested.
Marked response: d, a, c, b

P. COc1cc(CCC(=O)OC2CC(O)(C(=O)O)CC(O)C2O)ccc1O (stereo not shown) [5-Dihydroferuloylquinic acid]
Q. COc1ccc(C=CC(=O)O)cc1OS(=O)(=O)O [iFA-3′-sulfate, 4′-Methoxycinnamic acid-3′-sulfate]
Exam item: Between the entries labelled P and Q , which has a larger Cumulative urinary excretion, Total 0–24 h value on record? Bench note: the answer is the label of the chosen record.
Marked response: Q

---

- test: Urinary excretion of phenolic metabolites after intake of the GCPE nutraceutical
- condition-set: urine; week 0; mean ± SEM, n = 9
measurement-label: Cumulative urinary excretion, Total 0–24 h (µmol)

COc1cc(CCC(=O)O)ccc1O [DHFA] | 0.5
O=C(O)CCc1ccc(OS(=O)(=O)O)c(O)c1 [DHCA-4′-sulfate] | 8

P. COc1ccc(C=CC(=O)O)cc1OS(=O)(=O)O [iFA-3′-sulfate, 4′-Methoxycinnamic acid-3′-sulfate]
Q. COc1ccc(CCC(=O)O)cc1OC [Dihydrodimethoxycinnamic acid, 3-(3′,4′-Dimethoxyphenyl)propanoic acid]
Exam item: For P and Q , which recorded Cumulative urinary excretion, Total 0–24 h is lower? Please reply using the label of the selected record.
Marked response: Q

---

- test: Urinary excretion of phenolic metabolites after intake of the GCPE nutraceutical
- condition-set: week 0, interval 6–9 h
measurement-label: Amount excreted in urine, 6-9 h (µmol)

Below, 3 compounds whose answers are already recorded.
COc1cc(CCC(=O)OC2CC(O)(C(=O)O)CC(O)C2O)ccc1O (stereo not drawn) [3-Dihydroferuloylquinic acid] | 0.029
COc1cc(/C=C/C(=O)O[C@@H]2C[C@@](O)(C(=O)O)C[C@@H](O)[C@@H]2O)ccc1O [5-Feruloylquinic acid] | 0.13
COc1cc(C=CC(=O)O)ccc1OS(=O)(=O)O [FA-4′-sulfate, 3′-Methoxycinnamic acid-4′-sulfate] | 7

A. O=C(O)Cc1cccc(O)c1 [3′-Hydroxyphenylacetic acid]
B. COc1ccc(CCC(=O)O)cc1OC [Dihydrodimethoxycinnamic acid, 3-(3′,4′-Dimethoxyphenyl)propanoic acid]
Exam item: When the recorded Amount excreted in urine, 6-9 h values are compared, which is smaller: that of A or that of B ? // caller expects the label of the chosen entry
Marked response: B

---

- test: Urinary excretion of phenolic metabolites after intake of the GCPE nutraceutical
- condition-set: week 8, interval 3–6 h
measurement-label: Amount excreted in urine, 3-6 h (µmol)

Would you please look over these solved cases?
COc1ccc(CCC(=O)O)cc1OC [Dihydrodimethoxycinnamic acid, 3-(3′,4′-Dimethoxyphenyl)propanoic acid] | 0.06
O=C(O)/C=C/c1ccc(O)c(O)c1 [CA, 3′,4′-Dihydroxycinnamic acid] | 0.06
COc1cc(CCC(=O)O)ccc1O | 0.03

1. O=C(O)c1ccc(O)cc1 [4-Hydroxybenzoic acid]
2. COc1cc(C=CC(=O)O)ccc1OS(=O)(=O)O [FA-4′-sulfate, 3′-Methoxycinnamic acid-4′-sulfate]
Exam item: # min-compare on Amount excreted in urine, 3-6 h between 1 and 2 Your answer should be the label of the entry you select.
Marked response: 1

P. O=C(/C=C/c1ccc(O)c(O)c1)O[C@@H]1C[C@@](O)(C(=O)O)C[C@@H](O)[C@@H]1O
Q. O=C(O)CCc1ccc(O)c(O)c1 [DHCA, 3-(3′,4′-Dihydroxyphenyl)propanoic acid]
Exam item: Which of the two items, P and Q , has the greater recorded Amount excreted in urine, 3-6 h? Identify your selection by its label.
Marked response: Q

a. COc1cc(/C=C/C(=O)O[C@@H]2C[C@@](O)(C(=O)O)C[C@@H](O)[C@@H]2O)ccc1O [3-Feruloylquinic acid]
b. COc1ccc(CCC(=O)O)cc1O
c. COc1cc(/C=C/C(=O)NCC(=O)O)ccc1O
Exam item: rank_up(items): orders items by reported Amount excreted in urine, 3-6 h in ascending numerical order. Output the labels ranked as instructed.
Marked response: a, b, c
(a: 0.08 µmol, b: 0.38 µmol, c: 1.2 µmol)

A. COc1ccc(/C=C/C(=O)NCC(=O)O)cc1O
B. COc1cc(/C=C/C(=O)O[C@@H]2C[C@@](O)(C(=O)O)C[C@@H](O)[C@@H]2O)ccc1O [5-Feruloylquinic acid]
C. O=C(O)CNC(=O)c1cccc(O)c1 [3′-Hydroxyhippuric acid]
Exam item: Order field: Amount excreted in urine, 3-6 h | Direction: descending (largest first) The response must list the labels following the requested ordering.
Marked response: C, B, A
(C: 2.6 µmol, B: 0.39 µmol, A: 0.1 µmol)

P. COc1cc(/C=C/C(=O)OC2[C@H](O)CC(O)(C(=O)O)C[C@H]2O)ccc1O (stereo partly shown)
Q. COc1cc(C=CC(=O)O)ccc1OC1OC(C(=O)O)C(O)C(O)C1O (stereo not shown) [FA-4′-glucuronide, 3′-Methoxycinnamic acid-4′-glucuronide]
Exam item: // returns P or Q , whichever has the lower Amount excreted in urine, 3-6 h Selection: enter the item's label.
Marked response: P
(P: 0.13 µmol, Q: 0.37 µmol)

a. COc1cc(CCC(=O)OC2CC(O)(C(=O)O)CC(O)C2O)ccc1O (stereo not shown) [3-Dihydroferuloylquinic acid]
b. O=C(CCc1ccc(O)c(O)c1)OC1CC(O)(C(=O)O)CC(O)C1O (stereo not shown) [3-Dihydrocaffeoylquinic acid]
Exam item: Could you check which of a and b has a smaller value for Amount excreted in urine, 3-6 h? Let me know the label of the one you choose.
Marked response: b
(b: 0.019 µmol, a: 0.062 µmol)

---

- test: Urinary excretion of phenolic metabolites after intake of the GCPE nutraceutical
- condition-set: urine; week 0; mean ± SEM, n = 9
measurement-label: Cumulative urinary excretion, Total 0–24 h (µmol)

Example cases with answers are listed next.
O=C(/C=C/c1ccc(O)c(O)c1)O[C@@H]1C[C@@](O)(C(=O)O)C[C@@H](O)[C@@H]1O | 0.33
O=C(O)c1ccc(O)c(O)c1 [3,4-Dihydroxybenzoic acid] | 0.13

I. O=C(CCc1ccc(O)c(O)c1)OC1CC(O)(C(=O)O)CC(O)C1O (stereo not shown) [5-Dihydrocaffeoylquinic acid]
II. O=C(O)CCc1ccc(O)cc1 [DHCoA, 3-(4′-Hydroxyphenyl)propanoic acid]
Exam item: Lower value for measured Cumulative urinary excretion, Total 0–24 h? Options: I , II Please identify the chosen entry by its label.
Marked response: I

---

- test: Urinary excretion of phenolic metabolites after intake of the GCPE nutraceutical
- condition-set: week 0, interval 11–24 h
measurement-label: Amount excreted in urine, 11-24 h (µmol)

# annotated cases, reported Amount excreted in urine, 11-24 h shown
O=C(O)CCc1ccc(O)c(O[C@@H]2O[C@H](C(=O)O)[C@@H](O)[C@H](O)[C@H]2O)c1 [DHCA-3′-glucuronide] | 0.3
COc1cc(CCC(=O)O)ccc1O[C@@H]1O[C@H](C(=O)O)[C@@H](O)[C@H](O)[C@H]1O [DHFA-4′-glucuronide] | 1.2
O=C(O)/C=C/c1ccc(O)c(O)c1 [CA, 3′,4′-Dihydroxycinnamic acid] | 0.12
COc1cc(CCC(=O)O)ccc1OS(=O)(=O)O [DHFA-4′-sulfate] | 3.5
COc1cc(/C=C/C(=O)O[C@@H]2C[C@@](O)(C(=O)O)C[C@@H](O)[C@@H]2O)ccc1O [3-Feruloylquinic acid] | 0.01

A. COc1ccc(/C=C/C(=O)NCC(=O)O)cc1O [IsoFeruloylglicine]
B. O=C(CCc1ccc(O)c(O)c1)OC1C(O)CC(O)(C(=O)O)CC1O (stereo not drawn) [4-Dihydrocaffeoylquinic acid]
Exam item: Looking at recorded values for Amount excreted in urine, 11-24 h, does A or B come in lower? I would appreciate it if you answered with the label of your choice.
Marked response: B

---

- test: Urinary excretion of phenolic metabolites after intake of the GCPE nutraceutical
- condition-set: week 0, interval 0–3 h
measurement-label: Amount excreted in urine, 0- 3 h (µmol)

Previously resolved entries follow.
COc1cc(CCC(=O)OC2CC(O)(C(=O)O)CC(O)C2O)ccc1O (centres unmarked) [3-Dihydroferuloylquinic acid] | 0.05
O=C(O)CCc1ccc(OS(=O)(=O)O)c(O)c1 [DHCA-4′-sulfate] | 0.4

P. COc1ccc(/C=C/C(=O)NCC(=O)O)cc1O [IsoFeruloylglicine]
Q. O=C(O)/C=C/c1ccc(O)c(OS(=O)(=O)O)c1 [CA-3′-sulfate, 4′Hydroxycinnamic acid-3′-sulfate]
R. O=C(O)c1cccc(O)c1 [3-Hydroxybenzoic acid]
Exam item: Ascending by Amount excreted in urine, 0- 3 h, please. To answer, arrange all of the labels according to the requested order.
Marked response: P, R, Q
